target: GDP-bound KRAS wild-type protein (Homo sapiens, UniProt P01116); assay: Binding to KRAS by surface plasmon resonance (SPR), Single Cycle Kinetics; settings: SPR Single Cycle Kinetics, GDP-bound KRAS wild-type protein, 1:1 binding model; read-out: KRAS KD
Sequence (P01116 whole entry): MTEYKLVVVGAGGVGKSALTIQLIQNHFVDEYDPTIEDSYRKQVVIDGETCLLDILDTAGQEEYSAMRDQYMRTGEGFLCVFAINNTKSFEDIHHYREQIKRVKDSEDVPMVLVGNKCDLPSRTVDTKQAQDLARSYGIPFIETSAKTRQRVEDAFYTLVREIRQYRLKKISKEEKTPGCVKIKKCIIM
*1 amine or outer side, *2 acyl side, *3 side chain or, on linkers, in order; H or OH if unused. Where a SMILES comes first, the peptide text is derived from it. Bridges are numbered along the chain shown (N, C = ends). [ ]: non-standard residue; d: D form. The star is where a group is joined. ξ: configuration not given here. hPhe(3-Cl-4-CF3) = N[C@@H](CCc1ccc(C(F)(F)F)c(Cl)c1)C(=O)O; X26 = C=CCN([C@@H](Cc1ccccc1)C(=O)[*:2])[*:1]; NMeGly(cPent) = CN[C@H](C(=O)O)C1CCCC1; NMeNle(5-ene) = C=CCC[C@H](NC)C(=O)O; dIle(3ξ) = CCC(C)[C@@H](N)C(=O)O; NMeD = CN[C@@H](CC(=O)O)C(=O)O; NMeL = CN[C@@H](CC(C)C)C(=O)O; Morpholide = C1CN(*)CCO1; Ac5c = NC1(C(=O)O)CCCC1; Sar = CNCC(=O)O
Assign pKd to each entry below.
Convention used: pKd is expressed as -log10 of the molar concentration.

In plain terms, C=CCC[C@H]1C(=O)N(CC=C)[C@@H](Cc2ccccc2)C(=O)N(C)CC(=O)N[C@@H](CCc2ccc(C(F)(F)F)c(Cl)c2)C(=O)N2CCC[C@H]2C(=O)NC2(CCCC2)C(=O)N(C)[C@@H](C2CCCC2)C(=O)N(C)[C@H](C(=O)N2CCOCC2)CC(=O)N(C)[C@@H](CC(C)C)C(=O)N[C@H](C(C)CC)C(=O)N(C)CC(=O)N1C (some centres unmarked) [PP0599] ([NMeL][dIle(3ξ)][Sar][NMeNle(5-ene)][X26][Sar][hPhe(3-Cl-4-CF3)]P[Ac5c][NMeGly(cPent)][NMeD]-Morpholide; lactam N-11) has a documented pKd of 6.74

In plain terms, CCO[C@@H]1C[C@H]2C(=O)NC3(CCC3)C(=O)N(C)[C@@H](C3CCCC3)C(=O)N(C)[C@H](C(=O)N3CCOCC3)CC(=O)N(C)[C@@H](CCOC)C(=O)N[C@@H]([C@@H](C)CC)C(=O)N(C)CC(=O)N(C)[C@H]3CCCCCN(C3=O)[C@@H](Cc3ccc(C(F)(F)F)cc3)C(=O)N(C)CC(=O)N[C@@H](CCc3cc(F)c(C(F)(F)F)c(F)c3)C(=O)N2C1 [PP0690] has a documented pKd of 9.34

* * *

molecular target: UniProt P01116; assay: Binding to KRAS by surface plasmon resonance (SPR), Single Cycle Kinetics; details: SPR, Single Cycle Kinetics, GDP-bound KRAS wild-type protein; read-out: KRAS KD
Assign pKd to each entry below.
Convention used: pKd is expressed as -log10 of the molar concentration.

In plain terms, CCO[C@@H]1C[C@H]2C(=O)NC3(CC(C)(C)C3)C(=O)N(C)[C@@H](C3CCCC3)C(=O)N(C)[C@H](C(=O)N(C)C)CC(=O)N(C)[C@@H](COC)C(=O)N[C@@H]([C@@H](C)CC)C(=O)N(C)CC(=O)N(C)[C@H]3C/C=C\CCN(C3=O)[C@@H](Cc3ccc(C)cc3)C(=O)N(C)CC(=O)N[C@@H](CCc3ccc(C(F)(F)F)c(Cl)c3)C(=O)N2C1 has a documented pKd of 10.10

In plain terms, CCO[C@@H]1C[C@H]2C(=O)NC3(CCC3)C(=O)N(C)[C@@H](C3CCCC3)C(=O)N(C)[C@H](C(=O)N3CCOCC3)CC(=O)N(C)[C@@H](CC)C(=O)N[C@@H]([C@@H](C)CC)C(=O)N(C)CC(=O)N(C)[C@H]3C[C@@H](C)CCN(C3=O)[C@@H](Cc3ccc(C(F)(F)F)cc3)C(=O)N(C)CC(=O)N[C@@H](CCc3cc(F)c(C(F)(F)F)c(F)c3)C(=O)N2C1 has a documented pKd of 10.25

In plain terms, CCO[C@@H]1C[C@H]2C(=O)NC3(CC(C)(C)C3)C(=O)N(C)[C@@H](C(CC)CC)C(=O)N(C)[C@H](C(=O)N(C)C)CC(=O)N(C)[C@@H](CC3CC3)C(=O)N[C@@H]([C@@H](C)CC)C(=O)N(C)CC(=O)N(C)[C@H]3C/C=C\CCN(C3=O)[C@@H](Cc3ccc(C)cc3)C(=O)N(C)CC(=O)N[C@@H](CCc3ccc(C(F)(F)F)c(OC)c3)C(=O)N2C1 has a documented pKd of 9.54

In plain terms, CC[C@H](C)[C@@H]1NC(=O)[C@@H]2CCCCc3ccc(cc3)C[C@@H](C(=O)N(C)CC(=O)N[C@@H](CCc3ccc(C(F)(F)F)c(OC)c3)C(=O)N3C[C@H](OC4CCCC4)C[C@H]3C(=O)NC3(CC(C)(C)C3)C(=O)N(C)[C@@H](C3CCCC3)C(=O)N(C)[C@H](C(=O)N(C)C)CC(=O)N2C)N2CC/C=C\C[C@@H](C2=O)N(C)C(=O)CN(C)C1=O has a documented pKd of 10.43

In plain terms, CC[C@H](C)[C@@H]1NC(=O)[C@H](CC(C)C)N(C)C(=O)C[C@@H](C(=O)N2CCOCC2)N(C)C(=O)[C@H](C2CCCC2)N(C)C(=O)C2(CCC2)NC(=O)[C@@H]2CCCN2C(=O)[C@H](CCc2ccc(C(F)(F)F)c(Cl)c2)NC(=O)CN(C)C(=O)[C@H](Cc2ccc(F)cc2)N2CCCCC[C@@H](C2=O)N(C)C(=O)CN(C)C1=O has a documented pKd of 9.48

In plain terms, CC[C@H](C)[C@@H]1NC(=O)[C@@H]2CCC/C=C/c3ccc(cc3)C[C@@H](C(=O)N(C)CC(=O)N[C@@H](CCc3ccc(Cl)c(Cl)c3)C(=O)N3C[C@H](OC4CCCC4)C[C@H]3C(=O)NC3(CC(C)(C)C3)C(=O)N(C)[C@@H](C3CCCC3)C(=O)N(C)[C@H](C(=O)N3CCCC3)CC(=O)N2C)N2CC/C=C\C[C@@H](C2=O)N(C)C(=O)CN(C)C1=O has a documented pKd of 9.57

In plain terms, CCCN(C)C(=O)[C@@H]1CC(=O)N(C)[C@@H](C2CC2)C(=O)N[C@@H]([C@@H](C)CC)C(=O)N(C)CC(=O)N(C)[C@H]2C/C=C\CCN(C2=O)[C@@H](Cc2ccc(C(F)(F)F)cc2)C(=O)N(C)CC(=O)N[C@@H](CCc2ccc(C(F)(F)F)c(OC)c2)C(=O)N2C[C@H](OCC)C[C@H]2C(=O)NC2(CC(C)(C)C2)C(=O)N(C)[C@@H](C2CCCC2)C(=O)N1C has a documented pKd of 9.85

In plain terms, CCCN(C)C(=O)[C@@H]1CC(=O)N(C)[C@@H](CC)C(=O)N[C@@H]([C@@H](C)CC)C(=O)N(C)CC(=O)N(C)[C@H]2C/C=C\CCN(C2=O)[C@@H](Cc2ccc(C(F)(F)F)cc2)C(=O)N(C)CC(=O)N[C@@H](CCc2cc(F)c(C(F)(F)F)c(F)c2)C(=O)N2C[C@H](OCC)C[C@H]2C(=O)NC2(CCC2)C(=O)N(C)[C@@H](C2CCCC2)C(=O)N1C has a documented pKd of 10.02

In plain terms, C=CC[C@H]1C(=O)N[C@@H]([C@@H](C)CC)C(=O)N(C)CC(=O)N(C)[C@H]2CCCCN(C2=O)[C@@H](Cc2ccc(C(F)(F)F)cc2)C(=O)N(C)CC(=O)N[C@@H](CCc2cc(F)c(C(F)(F)F)c(F)c2)C(=O)N2C[C@H](OCC)C[C@H]2C(=O)N[C@](C)(CC=C)C(=O)N(C)[C@@H](C2CCCC2)C(=O)N(C)[C@H](C(=O)N2CCOCC2)CC(=O)N1C has a documented pKd of 10.00

In plain terms, CCCO[C@@H]1C[C@H]2C(=O)NC3(CCC3)C(=O)N(C)[C@@H](C3CCCC3)C(=O)N(C)[C@H](C(=O)N3CCOCC3)CC(=O)N(C)[C@@H](CC(C)C)C(=O)N[C@@H]([C@@H](C)CC)C(=O)N(C)CC(=O)N(C)[C@H]3CCCCCN(C3=O)[C@@H](Cc3ccc(C(F)(F)F)cc3)C(=O)N(C)CC(=O)N[C@@H](CCc3cc(F)c(C(F)(F)F)c(F)c3)C(=O)N2C1 has a documented pKd of 9.22

In plain terms, CCO[C@@H]1C[C@H]2C(=O)NC3(CC(C)(C)C3)C(=O)N(C)[C@@H](C(CC)CC)C(=O)N(C)[C@H](C(=O)N(C)C)CC(=O)N(C)[C@@H](CC3CCC3)C(=O)N[C@@H]([C@@H](C)CC)C(=O)N(C)CC(=O)N(C)[C@H]3C/C=C\CCN(C3=O)[C@@H](Cc3ccc(C)cc3)C(=O)N(C)CC(=O)N[C@@H](CCc3cc(F)c(C(F)(F)F)c(F)c3)C(=O)N2C1 has a documented pKd of 9.54
